- Assay overview: recombinant barcode read abundance after kanamycin selection (control-corrected) (log10(CPM+1)); higher = more efficient recombination; sequences stand for … in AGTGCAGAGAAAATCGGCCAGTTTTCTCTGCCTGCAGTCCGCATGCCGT…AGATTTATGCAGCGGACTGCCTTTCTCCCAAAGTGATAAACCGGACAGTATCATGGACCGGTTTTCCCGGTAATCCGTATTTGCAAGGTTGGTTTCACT; site = the 11-nt target
Quantity measured: recombinant barcode read abundance (log10)
Answers are plain numbers.

Below are worked cases with known answers.
Ask: Please report the recorded recombinant barcode read abundance (log10) for ACAACCTCTTGGGTTCTAACCTGTTGCCG (site TAGGGTACTGC) .
Reply: 0

Ask: Now give it for AGCTATGCTTGGGTTCTAACCTGTTGCCT (site AGCTATGCTAG) too.
Reply: 0.317

Ask: Similarly, GTACAGACTTGGGTTCTAACCTGTTGCCT (site GTCCAGACTAG) ?
Reply: 0.0588

Ask: // next record ACCGTGACTTGGGTTCTAACCTGTTGCCT (site ACCGAGACTAG)
Reply: 0.0423

For every item in the list below, what is its measured recombinant barcode read abundance (log10)?
1. GGGTCCACTTGGGTTCTAACCTGTTGCCA (site GGGTCCACTTG)
2. AATTAGACTTGGGTTCTAACCTGTTGCCT (site TATTAGACTAG)
3. CTACGATCTTGGGTTCTAACCTGTTGCAC (site CTACGGTCTGT)

Reply:
1. 1.44
2. 0.125
3. 0.375

For each listed entry, give its recombinant barcode read abundance (log10).
1. TAACTTACTTGGGTTCTAACCTGTTGCCT (site TAACTTACTAG)
2. CAAGTCGCTTGGGTTCTAACCTGTTGCCT (site CAAGTCGCTAG)

Reply:
1: 0.185; 2: 1.29

Dear colleague, could you please provide recombinant barcode read abundance (log10) for the sequences listed below?
1. TAGTTAGCTTGGGTTCTAACCTGTTGCCC (site TAGTTAGCTCG)
2. ACTAGGACTTGGGTTCTAACCTGTTGCGA (site ACTAGGACTGC)
3. GAAGTAACTTGGGTTCTAACCTGTTGCCT (site GAAGTAACTAG)
4. GTCTCGGCTTGGGTTCTAACCTGTTGCTG (site GTCTCGGCTCA)

Reply:
[0.0413, 0.0331, 1.18, 0.0917]

For every item below, please supply its recombinant barcode read abundance (log10).
1. ATATGTACTTGGGTTCTAACCTGTTGCAG (site ATATGTACTCT)
2. ATATGTGCTTGGGTTCTAACCTGTTGCCG (site ATATGTGCTCG)
3. GAGTAGCCTTGGGTTCTAACCTGTTGCGG (site GAGTCGCCTCC)
4. AAGTGGTCTTGGGTTCTAACCTGTTGCTA (site AAGTGGTCTTA)

Reply:
1. 2.1
2. 1.71
3. 0.196
4. 1.46

====

For each record, write down the corresponding recombinant UMI read abundance (log10).
- Assay overview: recombinant UMI read abundance after kanamycin selection (control-corrected) (log10(CPM+1)); higher = more efficient recombination; extreme values may be limits of the assay; sequences stand for … in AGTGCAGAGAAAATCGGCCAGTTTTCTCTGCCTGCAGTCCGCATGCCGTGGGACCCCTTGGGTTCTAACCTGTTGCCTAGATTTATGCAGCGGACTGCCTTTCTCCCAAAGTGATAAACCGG…AGGTTGGTTTCACT; site = the 11-nt donor
One number for each entry.

Recorded recombinant UMI read abundance (log10), per entry:
Ask: Which recombinant UMI read abundance (log10) value is on record for GATTTATCATGGACCGGTTTTCCCGGTAATCCGTATTTGTC (site GATTTATCTGA) ?
Reply: 0.525

Ask: Lookup TGAACGACATGGACCGGTTTTCCCGGTAATCCGTATTTGGA (site TGAACGACTTC)
Reply: 0.221

Ask: Could you do the same for TCCAATTCATGGACCGGTTTTCCCGGTAATCCGTATTTGAC (site TCCAATTCTGA) , please?
Reply: 0

Ask: Can you check AGCTCAACATGGACCGGTTTTCCCGGTAATCCGTATTTGGG (site AGCTCACCTCC) next?
Reply: 0

Ask: CGTGGAACATGGACCGGTTTTCCCGGTAATCCGTATTTGTG (site CGTGGAACTGA) , same question.
Reply: 0

Ask: Record: CGTTCGTCATGGACCGGTTTTCCCGGTAATCCGTATTTGCT (site CGTTCGTCTAG)
Reply: 1.95

Ask: Would you kindly repeat that for CTCCGTACATGGACCGGTTTTCCCGGTAATCCGTATTTGAG (site CTCCTTACTCT) ?
Reply: 0.0158

Ask: What do you have for CTTCTCGCATGGACCGGTTTTCCCGGTAATCCGTATTTGTA (site CTTCTCGCTTA) ?
Reply: 1.29

Ask: Now consider GTTTCAGCATGGACCGGTTTTCCCGGTAATCCGTATTTGTG (site GTTTCAGCTCA) .
Reply: 0.537

Ask: Similarly, ATTGAGACATGGACCGGTTTTCCCGGTAATCCGTATTTGGT (site ATTGACACTAC) ?
Reply: 0.0545

Kindly give each listed record's recombinant UMI read abundance (log10).
1. GGTGGAACATGGACCGGTTTTCCCGGTAATCCGTATTTGTT (site CGTGGAACTAA)
2. CACCACACATGGACCGGTTTTCCCGGTAATCCGTATTTGTA (site CGCCACACTTA)
3. TGTACTCCATGGACCGGTTTTCCCGGTAATCCGTATTTGAC (site TGTACTCCTGT)
4. TACTTTCCATGGACCGGTTTTCCCGGTAATCCGTATTTGCC (site TACTTTCCTGG)
5. CGGAATCCATGGACCGGTTTTCCCGGTAATCCGTATTTGTA (site CGGAATCCTGA)
6. GGAAAGGCATGGACCGGTTTTCCCGGTAATCCGTATTTGCT (site CGAAAGGCTAG)

Reply:
1: 0.00196; 2: 0.29; 3: 0; 4: 0; 5: 0; 6: 1.06

Parameters: items (list). Returns: recombinant UMI read abundance (log10) for each item.
1. AATGTAACATGGACCGGTTTTCCCGGTAATCCGTATTTGCC (site AATGTAACTCG)
2. GGGTAATCATGGACCGGTTTTCCCGGTAATCCGTATTTGAT (site GGGTAATCTAT)

Reply:
0
3.04

====

- Assay overview: recombinant barcode read abundance after kanamycin selection (control-corrected) (log10(CPM+1)); higher = more efficient recombination; sequences stand for … in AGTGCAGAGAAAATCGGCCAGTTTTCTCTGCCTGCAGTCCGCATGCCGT…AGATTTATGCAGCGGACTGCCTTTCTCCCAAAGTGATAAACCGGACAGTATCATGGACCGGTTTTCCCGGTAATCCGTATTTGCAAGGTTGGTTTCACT; site = the 11-nt target
Quantity measured: recombinant barcode read abundance (log10)
Answers are plain numbers.

Here is how some sequences turned out for recombinant barcode read abundance (log10).
Ask: Return reported recombinant barcode read abundance (log10); argument: GATAACTCTTGGGTTCTAACCTGTTGCCT (site TATAACTCTAG)
Reply: 0.315

Ask: Can you handle ATAGCCACTTGGGTTCTAACCTGTTGCCT (site ATAGCCACTAG) next?
Reply: 1.02

Ask: Entry to check: CACAAAGCTTGGGTTCTAACCTGTTGCCT (site CACAAAGCTAG)
Reply: 0.84

Ask: Another sequence: GACCGCTCTTGGGTTCTAACCTGTTGCTA (site GACCGCTCTTA)
Reply: 1.2

List recombinant barcode read abundance (log10) for every entry below, keeping the order given.
1. GTCGCCACTTGGGTTCTAACCTGTTGCCT (site GTTGCCACTAG)
2. TCTCAGGCTTGGGTTCTAACCTGTTGCCG (site TCTCAGGCTCG)
3. TCTTGGACTTGGGTTCTAACCTGTTGCAC (site AGGGACCCTAG)
4. GGACCCTCTTGGGTTCTAACCTGTTGCCT (site AGACCCTCTAG)
5. CTCCATGCTTGGGTTCTAACCTGTTGCCT (site CTCCATACTAG)
6. GACCTATCTTGGGTTCTAACCTGTTGCCT (site TGTGCTACTGT)

Reply:
1. 0.196
2. 0.0148
3. 0.0242
4. 1.09
5. 0.325
6. 0.213

====

- Assay overview: recombinant barcode read abundance after kanamycin selection (control-corrected) (log10(CPM+1)); higher = more efficient recombination; sequences stand for … in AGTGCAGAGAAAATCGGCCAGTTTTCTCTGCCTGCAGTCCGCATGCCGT…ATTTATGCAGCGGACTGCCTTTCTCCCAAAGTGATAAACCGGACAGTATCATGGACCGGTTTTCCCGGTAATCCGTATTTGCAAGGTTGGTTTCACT; site = the 11-nt target
Quantity measured: recombinant barcode read abundance (log10)
Give bare numbers.

Before answering, review these 3 worked examples.
Ask: Reported recombinant barcode read abundance (log10) for ATGCTTTACTGGGTTCTAACCTGTTGCCTGT [ATGCTTTCTAG_LTGcore_AC_RTGcore_AC] (site ATGCTTTCTAG) (LTG core: AC, RTG core: AC) : what is it?
Reply: 0.0458

Ask: Same thing, different sequence: TAGAGGGGCTGGGTTCTAACCTGTTGCGGAG [TAGAGGGCTCC_LTGcore_GC_RTGcore_CT] (site TAGAGGGCTCC) (LTG core: GC, RTG core: CT)
Reply: 0.284

Ask: Okay, and AGTCTTACCTGGGTTCTAACCTGTTGCCAAG [AGTCTTACTTG_LTGcore_CC_RTGcore_CT] (site AGTCTTACTTG) (LTG core: CC, RTG core: CT) ?
Reply: 0.0498

Could you report recombinant barcode read abundance (log10) for every entry in the following list?
1. TGTATTCTATGGGTTCTAACCTGTTGCCTTA [TGTATTCCTAG_LTGcore_TA_RTGcore_TA] (site TGTATTCCTAG) (LTG core: TA, RTG core: TA)
2. GGACACCCTTGGGTTCTAACCTGTTGCCTTG [GGACACCCTAG_LTGcore_CT_RTGcore_CA] (site GGACACCCTAG) (LTG core: CT, RTG core: CA)
3. AGGCCTCAATGGGTTCTAACCTGTTGCCTTT [AGGCCTCCTAG_LTGcore_AA_RTGcore_AA] (site AGGCCTCCTAG) (LTG core: AA, RTG core: AA)
4. AGGCGGTGTTGGGTTCTAACCTGTTGCTTAC [AGGCGGTCTAA_LTGcore_GT_RTGcore_GT] (site AGGCGGTCTAA) (LTG core: GT, RTG core: GT)
5. TCGCGACCTTGGGTTCTAACCTGTTGCCGAA [TCGCGACCTCG_LTGcore_CT_RTGcore_TT] (site TCGCGACCTCG) (LTG core: CT, RTG core: TT)
6. CATATTACATGGGTTCTAACCTGTTGCCTTG [CATATTACTAG_LTGcore_CA_RTGcore_CA] (site CATATTACTAG) (LTG core: CA, RTG core: CA)
7. ATGTCCCAATGGGTTCTAACCTGTTGCTCTT [ATGTCCCCTGA_LTGcore_AA_RTGcore_AA] (site ATGTCCCCTGA) (LTG core: AA, RTG core: AA)
8. AAACAGTTATGGGTTCTAACCTGTTGCCTAG [AAACAGTCTAG_LTGcore_TA_RTGcore_CT] (site AAACAGTCTAG) (LTG core: TA, RTG core: CT)

Reply:
1. 0.0243
2. 1.32
3. 0.0414
4. 0.278
5. 0.666
6. 0.00594
7. 0.133
8. 0.0345

Please supply recombinant barcode read abundance (log10) for each of the following items, keeping them in order.
1. AGGCCTCGGTGGGTTCTAACCTGTTGCCTCC [AGGCCTCCTAG_LTGcore_GG_RTGcore_GG] (site AGGCCTCCTAG) (LTG core: GG, RTG core: GG)
2. GCGCGACGTTGGGTTCTAACCTGTTGCTTAC [GCGCGACCTAA_LTGcore_GT_RTGcore_GT] (site GCGCGACCTAA) (LTG core: GT, RTG core: GT)
3. GGGAGCCCTTGGGTTCTAACCTGTTGCTGAT [GGGAGCCCTCA_LTGcore_CT_RTGcore_AT] (site GGGAGCCCTCA) (LTG core: CT, RTG core: AT)
4. GAGTCCTAGTGGGTTCTAACCTGTTGCCTCT [GAGTCCTCTAG_LTGcore_AG_RTGcore_AG] (site GAGTCCTCTAG) (LTG core: AG, RTG core: AG)

Reply:
0.0521
0.0144
0.599
0.0613

Give recombinant barcode read abundance (log10) for all sequences that follow.
1. AGTCTTAAGTGGGTTCTAACCTGTTGCCACT [AGTCTTACTTG_LTGcore_AG_RTGcore_AG] (site AGTCTTACTTG) (LTG core: AG, RTG core: AG)
2. GGACACCTCTGGGTTCTAACCTGTTGCCTAG [GGACACCCTAG_LTGcore_TC_RTGcore_CT] (site GGACACCCTAG) (LTG core: TC, RTG core: CT)
3. GAGTCCAGTTGGGTTCTAACCTGTTGCGTAC [GAGTCCACTAC_LTGcore_GT_RTGcore_GT] (site GAGTCCACTAC) (LTG core: GT, RTG core: GT)
4. AGGCGGGGGTGGGTTCTAACCTGTTGCGGCC [AGGCGGGCTCC_LTGcore_GG_RTGcore_GG] (site AGGCGGGCTCC) (LTG core: GG, RTG core: GG)
5. GCGCGACTATGGGTTCTAACCTGTTGCTTAG [GCGCGACCTAA_LTGcore_TA_RTGcore_CT] (site GCGCGACCTAA) (LTG core: TA, RTG core: CT)
6. CGGTCCCAATGGGTTCTAACCTGTTGCCATT [CGGTCCCCTTG_LTGcore_AA_RTGcore_AA] (site CGGTCCCCTTG) (LTG core: AA, RTG core: AA)
7. AGGCCTCTTTGGGTTCTAACCTGTTGCCTAA [AGGCCTCCTAG_LTGcore_TT_RTGcore_TT] (site AGGCCTCCTAG) (LTG core: TT, RTG core: TT)

Reply:
1: 0.0305; 2: 0.117; 3: 0.0422; 4: 0.0346; 5: 0.038; 6: 0.0857; 7: 0.196
